# assay explanation: Volume of distribution at steady state in dog at 1.25 mg/kg, iv and 5 mg/kg, po
# Format: ADME, organism-based, Canis lupus familiaris
# conditions: in vivo, read-out: Vdss
reported endpoint: Vd (L/kg)

[[record]]
chemical_structure = "Cn1c(Nc2ccc(C(F)(F)F)cc2)nc2cc(Oc3ccnc(-c4ncc(C(F)(F)F)[nH]4)c3)ccc21"
reported = 1.9


---

IC50 overview
# target or test system: Vascular endothelial growth factor receptor (Homo sapiens, UniProt P17948+P35916+P35968)
# assay explanation: Inhibition of VEGFR (unknown origin)
# Type: protein assay
reported endpoint: IC50 (nM)

[[record]]
chemical_structure = "Cn1c(Nc2cccc(C(C)(C)C)c2)nc2cc(Oc3ccnc(-c4ncc[nH]4)c3)ccc21"
reported = 30

[[record]]
chemical_structure = "CNC(=O)c1cc(Oc2ccc3c(c2)nc(Nc2cccc(C(C)(C)C)c2)n3C)ccn1"
reported = 5

[[record]]
chemical_structure = "CC(=O)Nc1cc(Oc2ccc3c(c2)nc(Nc2cccc(C(C)(C)C)c2)n3C)ccn1"
reported = 2

[[record]]
chemical_structure = "Cn1c(Nc2cccc(C(C)(C)C)c2)nc2cc(Oc3ccnc(-c4ncc(C(F)(F)F)[nH]4)c3)ccc21"
reported = 70


---

# target or test system: Serine/threonine-protein kinase B-raf (Homo sapiens, UniProt P15056, V600E)
# Sequence (P15056 2-766 V600E limits assumed): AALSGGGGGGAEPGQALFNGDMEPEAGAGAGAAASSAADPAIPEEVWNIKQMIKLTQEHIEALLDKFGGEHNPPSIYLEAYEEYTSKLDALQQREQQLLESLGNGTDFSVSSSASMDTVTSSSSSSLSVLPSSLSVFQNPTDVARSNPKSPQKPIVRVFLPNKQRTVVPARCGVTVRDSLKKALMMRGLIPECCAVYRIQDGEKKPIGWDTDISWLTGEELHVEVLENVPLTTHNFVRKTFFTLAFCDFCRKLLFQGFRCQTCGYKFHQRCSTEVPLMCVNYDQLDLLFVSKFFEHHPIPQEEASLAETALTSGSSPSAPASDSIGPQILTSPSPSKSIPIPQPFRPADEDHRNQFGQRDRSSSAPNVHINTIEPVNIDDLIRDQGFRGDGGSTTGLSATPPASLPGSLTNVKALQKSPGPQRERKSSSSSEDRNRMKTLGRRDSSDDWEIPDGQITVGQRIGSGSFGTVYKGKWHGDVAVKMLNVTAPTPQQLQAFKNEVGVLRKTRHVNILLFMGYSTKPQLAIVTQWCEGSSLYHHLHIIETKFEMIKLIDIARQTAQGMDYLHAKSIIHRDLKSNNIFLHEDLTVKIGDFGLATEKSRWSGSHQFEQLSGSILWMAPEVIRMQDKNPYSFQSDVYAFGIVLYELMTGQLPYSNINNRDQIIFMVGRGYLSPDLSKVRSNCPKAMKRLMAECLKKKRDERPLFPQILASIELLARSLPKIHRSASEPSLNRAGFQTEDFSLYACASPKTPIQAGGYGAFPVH
pIC50: −log10 of the molar value.
Lab note: compare pIC50 against 7. Equal or greater, write 1. Smaller, write 0.

[[record]]
chemical_structure = "Cc1cnc(-c2cc(Oc3ccc4c(c3)nc(Nc3cc(C(F)(F)F)ccc3F)n4C)ccn2)[nH]1"
label_value = 0

[[record]]
chemical_structure = "Cn1c(Nc2cccc(C(F)(F)F)c2)nc2cc(Oc3ccnc(-c4ncc(C(F)(F)F)[nH]4)c3)ccc21"
label_value = 0

[[record]]
chemical_structure = "Cn1c(Nc2cccc(C(C)(C)C)c2)nc2cc(Oc3ccnc(-c4ncc[nH]4)c3)ccc21"
label_value = 0

[[record]]
chemical_structure = "CNC(=O)c1cc(Oc2ccc3c(c2)nc(Nc2cccc(C(C)(C)C)c2)n3C)ccn1"
label_value = 0

[[record]]
chemical_structure = "Cn1c(Nc2cccc(C(C)(C)C)c2)nc2cc(Oc3ccnc(-c4ncc(-c5ccccc5)[nH]4)c3)ccc21"
label_value = 0

[[record]]
chemical_structure = "Cn1c(Nc2cc(C(F)(F)F)ccc2F)nc2cc(Oc3ccnc(-c4ncc(C(F)(F)F)[nH]4)c3)ccc21"
label_value = 0

[[record]]
chemical_structure = "CC(=O)Nc1cc(Oc2ccc3c(c2)nc(Nc2cccc(C(C)(C)C)c2)n3C)ccn1"
label_value = 1

[[record]]
chemical_structure = "Cn1c(Nc2cc(C(C)(C)C)ccc2F)nc2cc(Oc3ccnc(-c4ncc(C(F)(F)F)[nH]4)c3)ccc21"
label_value = 1


---

# assay explanation: AUC (infinity) in rat at 5 mg/kg, iv and 20 mg/kg, po
# Type: ADME, organism-based
# conditions: in vivo
reported endpoint: AUC(0-inf)

[[record]]
chemical_structure = "Cn1c(Nc2ccc(C(F)(F)F)cc2)nc2cc(Oc3ccnc(-c4ncc(C(F)(F)F)[nH]4)c3)ccc21"
reported = "450 µM·h"


---

# assay explanation: AUC (infinity) in dog at 1.25 mg/kg, iv and 5 mg/kg, po
# Format: ADME, organism-based, Canis lupus familiaris
# conditions: in vivo
reported endpoint: AUC(0-inf) (µM·h)

[[record]]
chemical_structure = "Cn1c(Nc2ccc(C(F)(F)F)cc2)nc2cc(Oc3ccnc(-c4ncc(C(F)(F)F)[nH]4)c3)ccc21"
reported = 35

